- Tested on: HL-60(TB) leukemia
- assay.overview: NCI-60 one-dose screen, 48 h
- assay.setup: 10 µM unless noted
Compounds without any hit were thinned out: in the full panel of roughly 83,000, 20% have a hit. The source made the active and inactive calls. How the source made its calls: active means growth percent below 10; inactive means the rest.
Give your call using only these classes: active, inactive

Study these solved cases before continuing.
CCOc1cccc(/C=N/NC(=O)c2ccc(Nc3ccnc(C(F)(F)F)c3)cc2)c1O; inactive
N#CCCCCCn1c2ccccc2c2c3c(c4c5ccccc5[nH]c4c21)C(=O)N(O)C3=O; active
O=C(COc1ccc(-c2nc3cc(Cl)c(Cl)cc3[nH]2)cc1)N=Nc1c(O)[nH]c2ccc(Cl)cc12; inactive
Cn1ncc(Cl)c1-c1cc(C(=O)N[C@H](CN)Cc2ccc(F)c(F)c2)oc1Cl; active
CCOC(=O)/C=C1\S/C(=N\Nc2ccc([N+](=O)[O-])cc2[N+](=O)[O-])N(Cc2ccccc2)C1=O; inactive
Cc1cc(C)c(C(=O)OC(C)CNC2CCCCC2)c(C)c1 (stereo not given); inactive

// outcome(item) with item = O=C(Nc1ccccc1)Nc1ccc(C(=O)/C=C/c2ccc(N3CCCC3)cc2)cc1
inactive

Short answer needed: outcome of this test for O=C(Nc1nc(-c2ccccc2)nc2c1sc(=S)n2-c1ccccc1)C(F)(F)F ?
inactive

So what was the verdict on O=Cc1ccc2nc(C(Cl)(Cl)Cl)ccc2c1 in this test?
inactive

Tell me the assay call for COc1ccc(C2=Nc3c/c(=C\c4c(O)[nH]c5cc(Cl)ccc45)ccc3=N2)cc1 please.
inactive

###

- Tested on: HL-60(TB) leukemia
- assay.overview: NCI-60 one-dose screen, 48 h (100 = growth as untreated, 0 = no growth, -100 = all killed)
- assay.setup: 10 µM unless noted
This is part of a sample that, as a whole, favours compounds with a hit. Of some 83,000 tested, about 20% had one in any assay.
growth below 60% gives no; growth at or above it gives yes.

Would you please look over these solved cases?
CC[C@]12C=CCN3CC[C@@]4(c5ccc(OC)cc5N(C)[C@H]4[C@@](O)(C(=O)OC)[C@@H]1OC(=O)CCC(=O)O[C@H]1CC[C@H]4[C@@H]5CC[C@H]6CC(=O)CC[C@]6(C)[C@H]5CC[C@]14C)[C@@H]32; no
O=C(NNc1nc2cc(F)ccc2n2c(CN3CCOCC3)ccc12)c1ccccc1; no
C=C(C)[C@@H]1CC[C@]2(CNCCO)CC[C@]3(C)[C@H](CC[C@@H]4[C@@]5(C)CCC(N)[C@@](C)(CO)[C@@H]5CC[C@]43C)[C@@H]12 (stereo partly drawn); no
OCCN(CCO)C(=S)S; yes

Form field: growth at least 60%? Entry: Cc1cc([N+](=O)[O-])c(Cl)cc1NS(=O)(=O)c1ccccc1
no

Entry O=C(CN1CCN(c2cc3c(cc2F)c(=O)c(C(=O)O)cn3C2CC2)CC1)Nc1ccc(C(=O)/C=C/c2ccc(Cl)cc2)cc1 : is its growth no less than 60%?
yes

Please tell me: is the compound CCCCCN(CCCCC)CC(O)c1c(Cl)ccc2ccccc12 (stereo not drawn) at or over 60% in terms of growth?
yes

###

- System: HL-60(TB) leukemia
- assay.overview: NCI-60 one-dose screen, 48 h (100 = growth as untreated, 0 = no growth, -100 = all killed)
- assay.setup: 10 µM unless noted
Compounds without any hit were thinned out: in the full panel of roughly 83,000, 20% have a hit.
endpoint: growth (%)
Give bare numbers, in %.

Give growth for each of the items listed below.
1. CC(C)(C)n1cc(-c2ccnc(NCCNS(=O)(=O)c3cccc4ccccc34)c2)c(-c2cccc(O)c2)n1
2. COc1ccc(C2CC(c3ccccc3)=Nc3ccccc3S2)cc1 (stereo not given)
3. CC(C)CC(NC(=O)CN(Cc1ccccc1)S(C)(=O)=O)C(=O)O (stereo not given)
4. NS(=O)(=O)Oc1ccc(-c2sc3cc(O)ccc3c2C(=O)c2ccc(OCCN3CCCCC3)cc2)cc1
5. COc1cc(/C=N/NC(=O)c2ccc(C(F)(F)F)nc2Nc2ccc(Cl)cc2C)ccc1O
6. COCCOCCCl

1: 71; 2: 85.7; 3: 94.8; 4: 47.7; 5: 4.41; 6: 110

Cited source for all entries: PubChem BioAssay (NCI)
